Tested on: Septoria lycopersici
Experiment: In vitro test Septoria lycopersici (leaf spot of tomato), radial growth on Potato Dextrose Agar
Format: cell-based
Details: 168 h, agar plate, 25° C., seven days, read-out: control compared to the untreated check
For each record, write down the corresponding inhibition of growth at 300 ppm.

// inhibition of growth at 300 ppm lookup, key: CCN=S(C)(=O)c1cccc(Nc2cc(C)c(N=CN(C)CC)cc2C)c1 (stereo not shown)
> 70%

// inhibition of growth at 300 ppm lookup, key: CCN(C)C=Nc1cc(C)c(S(C)(=O)=NCc2cccc(OC(F)(F)F)c2)cc1Cl (stereo not shown)
> 70%

// inhibition of growth at 300 ppm lookup, key: CCN(C)C=Nc1cc(C)c(Nc2ccc(S(C)(=O)=NCC3CC3)cc2)cc1C (stereo not shown)
> 70%

// inhibition of growth at 300 ppm lookup, key: CCN=S(=O)(CC1CC1)c1cccc(Oc2cc(Cl)c(N=CN(C)CC)cc2C)c1 (stereo not shown)
> 70%

These data points were gathered from patent US20200148635A1.
